- target desc: human melanocortin-4 receptor (recombinant hMC4-R) (human, UniProt P32245 1-332)
- Sequence (P32245 whole entry): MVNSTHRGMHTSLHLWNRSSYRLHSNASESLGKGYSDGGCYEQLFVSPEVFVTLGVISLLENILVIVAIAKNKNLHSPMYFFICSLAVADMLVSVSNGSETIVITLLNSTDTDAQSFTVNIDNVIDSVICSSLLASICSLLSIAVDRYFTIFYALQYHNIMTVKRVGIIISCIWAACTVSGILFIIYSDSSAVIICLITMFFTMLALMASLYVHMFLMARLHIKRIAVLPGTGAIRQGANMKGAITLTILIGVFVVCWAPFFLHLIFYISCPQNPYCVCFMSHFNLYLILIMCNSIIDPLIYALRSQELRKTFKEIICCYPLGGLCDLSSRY
- protocol notes: cell-based or functional assay
Bridge positions count the residues as written; N and C are the ends. Square brackets hold non-standard residues; d marks the D form. Nle = CCCC[C@H](N)C(=O)O; Orn = NCCC[C@H](N)C(=O)O
Listing: Ec50 (nM), cAMP of selected binders
Field: numeric (nM). Do not append units.

Known results for binders:
- binder: "Ac-[Nle][Orn]H[dF]RWE-NH2 (lactam 2-7) [Peptide No. 36: Ac-Nle-cyclo(Orn-His-D-Phe-Arg-Trp-Glu)-NH2]"
  outcome measure: "Ec50 (nM), cAMP"
  val: 0.2
- binder: "Ac-KDH[dF]RWK-NH2 (lactam 2-7; SMILES CC(=O)N[C@@H](CCCCN)C(=O)N[C@H]1CC(=O)NCCCC[C@@H](C(N)=O)NC(=O)[C@H](Cc2c[nH]c3ccccc23)NC(=O)[C@H](CCCNC(=N)N)NC(=O)[C@@H](Cc2ccccc2)NC(=O)[C@H](Cc2c[nH]cn2)NC1=O, also called Peptide Structure (Asp...Lys) in the row of No. 40) [Asp...Lys analog of peptide No. 40: Ac-Lys-cyclo(Asp-His-D-Phe-Arg-Trp-Lys)-NH2]"
  outcome measure: "Ec50 (nM), cAMP"
  val: 5

Kindly consider the entry below.
Incoming: Ec50 (nM), cAMP lookup needed for Ac-R[Orn]P[dF]RWE-NH2 (lactam 2-7) [Peptide No. 47: Ac-Arg-cyclo(Orn-Pro-D-Phe-Arg-Trp-Glu)-NH2] , thanks.
Outgoing: 6
